Hello, the source for this data is PubChem BioAssay AID602250, in case you need it.

testMethodNotes: calcium signal blockers in parental CHO-K1 cells – cell-based, Fluo-8 calcium fluorescence, full deck, 1536-well, counter-screen for M1 antagonist project, primary screen (AID 602250);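 also: 0% = DMSO plus EC80 ATP and 100% = DMSO alone without ATP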
settings: ATP-induced calcium, Fluo-8 fluorescence, at 3 µM, stronger effect = higher value
The whole screen tested about 360,000 compounds, of which about 2,200 (0.61%) were called active. The sample holds actives, similar compounds and a random draw of the others, so the mix is not that of the screen.
propertyName: inhibition

(Q) Which inhibition value is on record for CN(CCO)Cc1csc2ccc(Br)cc12 ?
(A) -7.65% (inactive)

(Q) Which inhibition value is on record for COc1ccc(CN(C)C(=O)c2cc(-c3ccc(C)cc3C)nc3ccccc23)c(OC)c1OC ?
(A) 5.32% (inactive)

(Q) Which inhibition value is on record for O=[N+]([O-])c1ccc2c(c1)C(O)n1nc(-c3ccccc3)nc1S2 (stereo not given) ?
(A) -21.9% (inactive)

(Q) Which inhibition value is on record for O=C(Nc1ccccc1C(=O)NCC1CCCO1)c1ccccc1F (stereo not given) ?
(A) -7.11% (inactive)

(Q) Which inhibition value is on record for COc1ccc(N2C(=O)CC(Sc3n[nH]c(-c4ccc(C)cc4)n3)C2=O)cc1 (stereo not given) ?
(A) 24.5% (active)

(Q) Which inhibition value is on record for CCOC(=O)C(Cc1ccc(N)cc1)N1C(=O)c2ccccc2C1=O (stereo not given) ?
(A) 25.2% (active)

(Q) Which inhibition value is on record for O=C(NCCN1CCOCC1)[C@H](Cc1ccccc1)N1C(=O)c2ccccc2C1=O ?
(A) -4.92% (inactive)

(Q) Which inhibition value is on record for COc1ccc(-c2cc(C(=O)N(C)CC(=O)Nc3ccccc3Cl)c3ccccc3n2)cc1OC ?
(A) 7.04% (inactive)

(Q) Which inhibition value is on record for COc1ccc(CNC(=O)COC(=O)C(CCSC)N2C(=O)c3ccccc3C2=O)cc1 (stereo not given) ?
(A) -6.61% (inactive)

(Q) Which inhibition value is on record for COc1ccc(NC(=O)C(NC(C)=O)C(=O)NCc2ccccc2Cl)cc1 (stereo not given) ?
(A) 1.86% (inactive)

###

testMethodNotes: calcium signal blockers in parental CHO-K1 cells – cell-based, Fluo-8 calcium fluorescence, full deck, 1536-well, counter-screen for M1 antagonist project, primary screen (AID 602250);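 also: 0% = DMSO plus EC80 ATP and 100% = DMSO alone without ATP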
settings: ATP-induced calcium, Fluo-8 fluorescence, at 3 µM, stronger effect = higher value
Among all 360,000 compounds or so, about 2,200 (0.61%) were called active. The entries come from a sample that favours actives as a whole.
Kindly supply the reported inhibition values for the records listed here.
Please respond with the number in % and leave the unit unwritten.

(Q) Which inhibition value is on record for COc1ccccc1CNC(=O)c1cc(-c2cc(Cl)ccc2C)n[nH]1 ?
(A) -17.7

(Q) Which inhibition value is on record for CC(=O)N1CCCc2cc(S(=O)(=O)N3CCCC(C(=O)N4CCN(c5cccc(Cl)c5)CC4)C3)ccc21 (stereo not given) ?
(A) 30.4

(Q) Which inhibition value is on record for COc1ccc(C(=O)NC2CC(C)(C)Cc3c2cnn3-c2ccccc2C)o1 (stereo not given) ?
(A) -6.41

(Q) Which inhibition value is on record for COc1ccc(C(=O)NC2CCCc3c2cnn3-c2cccc(C)c2C)c(OC)n1 (stereo not given) ?
(A) 19.6

(Q) Which inhibition value is on record for COc1ccc(Cl)cc1NC(=O)Cn1nc(-c2ccc(C)cc2)n(C)c1=S ?
(A) -1.73
